Where do the numbers come from? From the DeepSol protein solubility set.

assay: soluble on expression in E. coli; label from the status in PepcDB or PDB records

{"sequenceChain": "MFDKKLSSNDWHIQKVEMNHQVYDIETMLADSAFREHEEEQDSSLNTALPEDKTAIEAKEQEQKEKRKRWYELFKKKPKPKSSMGEFVFDQKENRIYGKGYCNRYFASYVWQGDRHIGIEDSGISRKVCKDEHLMAFELEFMENFKGNFTVTKGKDTLILDNQKMKIYLKTP", "soluble on expression in E. coli": "not soluble"}
{"sequenceChain": "MGSDKIHHHHHHMFYYNQYVRAQSLDEAYELYQKKPNFVLGGMLWLKMKNKTLGTAIDLCDLGLDQIDEDENEFRIGAYATLRQIETHEALNAYTHGAIAESVRHIVGVQFRNVATVGGSIWGRFGFSDVMTIFRALGAKVQLHKAGIMDLDEFAALPRTTRDVLVSVIVPKNAKGVVYLSQRNQSTDFPVLTCAVANRSGRYVAVIGASPYMAEPVWDEDGILDGIADAKTDGNAALTDNSETNAKIDKFAEYVAEHIRFGSNIRAGAEYREIICRVLTRRAVTQSLDICDDIKHEH", "soluble on expression in E. coli": "not soluble"}
